outcome_measure: melting point

Some entries whose results are on file:
>  <compound>
OC(Cn1ccnc1)c1cccc2ccccc12 (configuration not stated)

>  <melting point>
112 to 115 °C

$$$$
>  <compound>
O=c1c2ccc(-c3nnn[nH]3)cc2oc2ccc(OCCO)cc12

>  <melting point>
270 °C

$$$$
>  <compound>
CCCC(=O)c1cnc2c(OC)cccc2c1Nc1sccc1C

>  <melting point>
132 to 133 °C

$$$$
>  <compound>
CCOC(=O)c1cn(CCCN(C)C)c2nn(C)cc2c1=O

>  <melting point>
120 to 121 °C

$$$$
>  <compound>
CC(C)c1cc(C(C)(C)C)cc(C=O)c1O

>  <melting point>
128 to 130 °C

$$$$
>  <compound>
Cc1cc(C)cc(S(=O)(=O)n2c(CCC(=O)O)cc3nc(C(F)(F)F)ccc32)c1

>  <melting point>
185 to 189 °C

$$$$
>  <compound>
CCn1cc(C(=O)NCc2ccc(Cl)cc2)c(=O)c2ccsc21

>  <melting point>
183 to 184 °C

$$$$
>  <compound>
CCC(CC)N1CC2=C3C(=NN(c4ccc(C(C)C)cc4Br)C(=O)N3CC2)C(C)=N1

>  <melting point>
149 to 150 °C

$$$$
>  <compound>
Cc1nc(N)nc(N)c1N=Nc1ccc(I)cc1

>  <melting point>
243 to 244 °C

$$$$
>  <compound>
C/C(=C\c1ccc(OC(C)C)cc1Oc1ncc(C(F)(F)F)cc1Cl)C(=O)NS(=O)(=O)NCc1cnc(C)cn1

>  <melting point>
126 to 128 °C

$$$$

Each of the following entries comes with a recorded value; kindly state melting point for each.
1. COc1ccc(COCC(O)Cc2cccnc2)cc1 (configuration not stated)
2. COc1ccc(C(=O)Nc2ccc(C(=O)Cl)c3ccccc23)cc1OC
3. CC1(C)N=C(S)N=C(NC(=O)c2ccccc2)N1
4. CSc1nccn1-c1nc(-c2ccc(Cl)cc2)c(CCC(=O)O)o1
5. CC(=O)SCSc1c[nH]nn1
6. C=CCC(C#N)(C#N)Cc1ccc(Br)cc1
7. CN(CCOc1ccc(NS(C)(=O)=O)cc1)CCc1ccc(N)cc1
8. Cc1cc(CCc2cc(C)cc(C(C)(C)C)c2O)c(O)c(C(C)(C)C)c1

Solution:
1. 55 to 56 °C
2. 167 to 171 °C
3. 176 to 178 °C
4. 225 to 226 °C
5. 88 to 89 °C
6. 61.7 °C
7. 155 to 157 °C
8. 104 to 105 °C

For each of the compounds below, note its melting point.
1. COC(=O)c1c(Cl)c(Cl)c(Cl)c(Cl)c1C#N
2. CN1Cc2c(C#N)ncn2-c2cccc(F)c2C1=O

Solution:
1: 82 to 83 °C; 2: > 250 °C

Could you report melting point for every entry in the following list?
1. Cc1cc(=O)n(-c2cc(N)c(Cl)cc2F)c(=O)n1C
2. Nc1cc(/C=C/c2cc(/C=C/c3ccc4cc[nH]c4c3)[nH]n2)ccc1O

Solution:
["> 220 °C", "123 to 126 °C"]
